Please provide measured EC50 for the entries that follow.
test system: BJ; experiment: BJ-TERT fibroblast viability loss – cell-based, RAS-independent, luminescence, dose response (AID 1933); assay type: functional; details: Homo sapiens
Active and inactive are the calls of the source.

So for Cc1ccc(-n2c(SCC(=O)Nc3ncc(Cl)cc3Cl)nc3ccccc32)cc1 , the logged EC50 turned out to be 115 µM (active)

So for C[C@@H]1C[C@H]2OC(=O)C3(CO3)[C@H]2[C@H](O)[C@]2(C)C(=O)C3OC3[C@@H]12 (stereo partly specified) , the logged EC50 turned out to be 17 µM (active)

So for Cc1ccc(Nc2nc(N)nc(CCl)n2)c(C)c1 , the logged EC50 turned out to be < 0.12 µM (active)

So for N#CC1=C(N)N2C(=C(C#N)C1c1ccc(Br)cc1)Nc1ccccc12 (stereo unspecified) , the logged EC50 turned out to be 11.8 µM (inconclusive)

So for CCc1cc(C(=O)N2CCc3c([nH]c4ccccc34)C2c2ccc(OC)cc2F)no1 (stereo unspecified) , the logged EC50 turned out to be 28.3 µM (active)

So for CCc1nc2sc3c(c2c(=O)n1NC(=O)CCl)CCCC3 , the logged EC50 turned out to be > 150 µM (not active)

====

molecular target: Heat shock factor protein 1 (Mus musculus); assay: decrease of HSF1-responsive luciferase luminescence – cell-based, NIH3T3, dose retest, confirmation (AID 2382); assay type: functional;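 also: NIH3T3 fibroblasts with HSF1-driven luciferase reporter stressed by proteasome inhibitor MG132; luminescence from HSF1-driven luciferase expression after 8 hours of MG132 stress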
Sequence (P38532 whole entry): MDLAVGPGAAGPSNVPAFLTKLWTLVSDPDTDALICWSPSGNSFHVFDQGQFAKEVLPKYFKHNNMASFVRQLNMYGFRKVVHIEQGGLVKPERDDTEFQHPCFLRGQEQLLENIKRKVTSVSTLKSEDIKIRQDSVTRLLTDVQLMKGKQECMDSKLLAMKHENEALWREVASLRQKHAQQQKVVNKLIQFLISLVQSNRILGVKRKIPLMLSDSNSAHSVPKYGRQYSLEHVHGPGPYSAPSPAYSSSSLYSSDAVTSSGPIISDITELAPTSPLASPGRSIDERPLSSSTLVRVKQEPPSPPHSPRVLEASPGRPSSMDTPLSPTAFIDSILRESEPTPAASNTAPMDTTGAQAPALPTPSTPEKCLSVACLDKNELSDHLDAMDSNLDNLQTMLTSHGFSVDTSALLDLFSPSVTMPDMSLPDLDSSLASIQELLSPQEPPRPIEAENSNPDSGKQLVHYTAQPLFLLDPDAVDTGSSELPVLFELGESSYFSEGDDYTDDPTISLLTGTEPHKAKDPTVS
Active and inactive are the calls of the source.
METRIC: EC50

So for O=C(CCCOc1ccccc1)Nc1nccs1 , the logged EC50 turned out to be > 195 µM (not active)

So for Cc1cc(O)c(C2=Nc3ccccc3SC(c3ccc(Cl)cc3)C2)c(=O)o1 (stereo not drawn) , the logged EC50 turned out to be 21 µM (active)

So for CN1/C(=C/C(=O)c2nc(S(C)(=O)=O)ncc2Cl)C(C)(C)c2ccccc21 , the logged EC50 turned out to be 4.37 µM (active)

====

target: UniProt P49327; assay: inhibition of human FAS-TE enzyme activity – biochemical, kinetic fluorescence intensity, dose response (AID 624326); format: functional;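 also: rate of fluorescence rise from hydrolysis of a fluorogenic O-methyl fluorescein ester substrate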
Sequence (P49327 whole entry): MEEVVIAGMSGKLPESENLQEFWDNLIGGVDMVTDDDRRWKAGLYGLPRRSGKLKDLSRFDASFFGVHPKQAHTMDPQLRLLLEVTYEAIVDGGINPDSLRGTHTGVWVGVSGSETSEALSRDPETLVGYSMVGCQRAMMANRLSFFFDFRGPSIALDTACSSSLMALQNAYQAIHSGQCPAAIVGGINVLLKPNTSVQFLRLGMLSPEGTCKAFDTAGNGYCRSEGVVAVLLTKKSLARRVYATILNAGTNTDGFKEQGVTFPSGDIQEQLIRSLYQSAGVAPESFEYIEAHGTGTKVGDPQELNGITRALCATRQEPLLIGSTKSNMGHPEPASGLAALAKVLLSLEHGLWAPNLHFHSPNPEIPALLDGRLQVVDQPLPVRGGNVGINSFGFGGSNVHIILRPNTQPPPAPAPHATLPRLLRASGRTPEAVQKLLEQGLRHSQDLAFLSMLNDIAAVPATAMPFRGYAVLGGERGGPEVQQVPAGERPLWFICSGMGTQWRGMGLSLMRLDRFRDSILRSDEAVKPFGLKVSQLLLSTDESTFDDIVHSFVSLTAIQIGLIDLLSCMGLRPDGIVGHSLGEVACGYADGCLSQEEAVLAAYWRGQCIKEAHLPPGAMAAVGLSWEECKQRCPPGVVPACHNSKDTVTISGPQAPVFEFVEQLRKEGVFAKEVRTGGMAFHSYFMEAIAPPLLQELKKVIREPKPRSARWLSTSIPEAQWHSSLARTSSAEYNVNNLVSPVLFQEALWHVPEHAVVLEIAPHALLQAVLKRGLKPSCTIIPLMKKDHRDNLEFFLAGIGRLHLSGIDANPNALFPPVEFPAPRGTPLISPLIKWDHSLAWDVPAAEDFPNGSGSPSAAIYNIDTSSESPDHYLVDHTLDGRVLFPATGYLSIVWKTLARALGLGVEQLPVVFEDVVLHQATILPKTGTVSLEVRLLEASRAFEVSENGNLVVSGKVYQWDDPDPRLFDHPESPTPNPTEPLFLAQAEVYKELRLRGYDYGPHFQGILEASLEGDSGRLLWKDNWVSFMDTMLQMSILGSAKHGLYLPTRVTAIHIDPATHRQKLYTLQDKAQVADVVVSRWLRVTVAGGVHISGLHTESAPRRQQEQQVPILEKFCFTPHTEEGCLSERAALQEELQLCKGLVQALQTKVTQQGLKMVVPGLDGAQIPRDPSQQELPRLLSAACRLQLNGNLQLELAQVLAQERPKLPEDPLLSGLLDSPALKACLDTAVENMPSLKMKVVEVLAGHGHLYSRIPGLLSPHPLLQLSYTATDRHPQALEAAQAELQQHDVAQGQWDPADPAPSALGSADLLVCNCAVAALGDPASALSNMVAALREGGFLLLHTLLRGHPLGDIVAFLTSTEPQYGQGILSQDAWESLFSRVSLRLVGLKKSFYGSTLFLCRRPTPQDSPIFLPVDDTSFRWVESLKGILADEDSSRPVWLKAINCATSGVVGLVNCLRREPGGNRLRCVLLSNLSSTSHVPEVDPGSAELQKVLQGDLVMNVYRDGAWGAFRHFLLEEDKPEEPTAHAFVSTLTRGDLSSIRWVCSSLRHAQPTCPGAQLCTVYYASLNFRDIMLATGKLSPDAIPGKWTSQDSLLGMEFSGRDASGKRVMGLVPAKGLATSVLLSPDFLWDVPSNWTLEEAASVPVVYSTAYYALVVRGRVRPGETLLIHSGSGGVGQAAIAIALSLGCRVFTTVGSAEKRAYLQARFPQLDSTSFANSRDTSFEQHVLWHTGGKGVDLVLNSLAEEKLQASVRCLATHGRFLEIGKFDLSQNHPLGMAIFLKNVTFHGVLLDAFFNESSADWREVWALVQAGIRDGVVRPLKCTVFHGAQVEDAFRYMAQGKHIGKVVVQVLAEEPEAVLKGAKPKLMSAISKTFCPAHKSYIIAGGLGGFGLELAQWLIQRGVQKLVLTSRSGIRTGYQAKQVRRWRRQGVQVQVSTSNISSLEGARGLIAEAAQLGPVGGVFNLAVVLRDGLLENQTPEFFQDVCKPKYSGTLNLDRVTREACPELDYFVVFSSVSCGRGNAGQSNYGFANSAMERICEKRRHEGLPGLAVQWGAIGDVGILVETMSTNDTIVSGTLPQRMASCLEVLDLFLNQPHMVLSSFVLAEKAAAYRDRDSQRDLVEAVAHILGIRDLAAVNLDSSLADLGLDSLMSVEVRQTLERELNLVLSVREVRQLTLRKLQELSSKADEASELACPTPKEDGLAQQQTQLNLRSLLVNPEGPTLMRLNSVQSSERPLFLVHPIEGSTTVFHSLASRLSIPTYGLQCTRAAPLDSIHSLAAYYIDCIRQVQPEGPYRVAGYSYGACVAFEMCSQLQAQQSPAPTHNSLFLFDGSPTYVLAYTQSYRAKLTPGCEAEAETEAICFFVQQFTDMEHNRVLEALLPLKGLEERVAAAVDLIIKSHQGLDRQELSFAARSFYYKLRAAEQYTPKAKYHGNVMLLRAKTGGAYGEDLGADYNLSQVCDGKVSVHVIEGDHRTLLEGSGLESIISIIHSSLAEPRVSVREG
The source made the active and inactive calls.
Please provide measured IC50 for the entries that follow.

Observed IC50 on UniProt P49327, entry COc1ccc2[nH]c3c(c2c1)CCN1C(=O)C(CC(=O)NCc2ccco2)C[C@H](C(=O)N2CCOCC2)[C@@]31CCC1CCCC1 (some centres not stated) , equals 4.73 µM (active)

Observed IC50 on UniProt P49327, entry CCOc1ccc(NC(=O)c2cc([N+](=O)[O-])ccc2N2CCOCC2)cc1 , equals 13.7 µM (active)

Observed IC50 on UniProt P49327, entry CCOc1ccc(-c2csc(/C(C#N)=C\c3ccc(O)c([N+](=O)[O-])c3)n2)cc1 , equals 6.74 µM (active)

Observed IC50 on UniProt P49327, entry Cc1c([N+](=O)[O-])cc(C(=O)Nc2ccc(Cc3ccncc3)cc2)cc1[N+](=O)[O-] , equals 8.08 µM (active)

Observed IC50 on UniProt P49327, entry COc1ccc(Cl)cc1-c1cc(C(=O)NCc2cccc(Cl)c2)[nH]n1 , equals 5.46 µM (active)

Observed IC50 on UniProt P49327, entry COc1ccc(C(=O)NC(C)CCc2ccccc2)cc1[N+](=O)[O-] (configuration not stated) , equals 9.58 µM (active)

Observed IC50 on UniProt P49327, entry COc1ccc(/C=C(/NC(=O)c2ccc([N+](=O)[O-])cc2)C(=O)NCCCN(C)C)cc1 , equals 3.13 µM (active)
